experimental_details: in vitro
conditions_used: human, hela cells, % viability
parameter: viability at 28.5 h, 10 µM

Per the records, this compound ( "CCOC(=O)[C@H]1CC[C@]2(CC1)CN(C)C(=O)c1ccccc1O2" ) has viability at 28.5 h, 10 µM equal to 101%

Per the records, this compound ( "Cc1cc(=O)oc2cc(NC(=S)NNC(=O)c3ccc(Cl)s3)ccc12" ) has viability at 28.5 h, 10 µM equal to 92.3%

Per the records, this compound ( "O=C(O)c1ccc(CN2CCC3(C/C=C/CNC(=O)c4ccccc4OCCNC3=O)CC2)cc1" ) has viability at 28.5 h, 10 µM equal to 109%

Per the records, this compound ( "O=C(O)c1ccccc1C1SCCCS1" ) has viability at 28.5 h, 10 µM equal to 91.4%

Per the records, this compound ( CC(NC(=O)CS(=O)(=O)Cc1ccc(C#N)cc1)c1ccc(C#N)cc1 (stereo not shown) ) has viability at 28.5 h, 10 µM equal to 91.1%

Per the records, this compound ( NC1CCC(N(CCc2ccccc2)C(=O)Nc2ccc3c(c2)OCO3)CC1 (stereo not shown) [CBK000480C] ) has viability at 28.5 h, 10 µM equal to 83.1%

Per the records, this compound ( "O=C(Nc1ccc(S(=O)(=O)NCc2ccccc2)cc1)Nc1ccc2c(c1)OCO2" ) has viability at 28.5 h, 10 µM equal to 95.1%

Per the records, this compound ( "CC1(O)CCN(Cc2nnnn2-c2ccc(S(C)(=O)=O)cc2)CC1" ) has viability at 28.5 h, 10 µM equal to 99.2%

Per the records, this compound ( CNC(=O)c1sc2ccccc2c1C1CCN(Cc2ccc(Oc3ncccn3)cc2)C1 (stereo not shown) ) has viability at 28.5 h, 10 µM equal to 85.9%

Per the records, this compound ( CC(C)CC(C(=O)Nc1ccc(Br)cc1)N1C(=O)c2ccccc2C1=O (stereo not shown) ) has viability at 28.5 h, 10 µM equal to 94.1%

Per the records, this compound ( "Cc1cc(NN(Cc2ccccc2)Cc2ccccc2)n2c(nc3ccccc32)c1C#N" ) has viability at 28.5 h, 10 µM equal to 96.9%

Per the records, this compound ( CCn1cc(CN(Cc2ccccc2)CC2CCCO2)c(C)n1 (stereo not shown) ) has viability at 28.5 h, 10 µM equal to 93.7%

Per the records, this compound ( "O=[N+]([O-])c1cccc(NS(=O)(=O)c2ccc(Cl)c(Cl)c2)c1" ) has viability at 28.5 h, 10 µM equal to 78.5%

Per the records, this compound ( "c1cnc(-c2ccc3c(c2)OCO3)c(OC2CCCCC2)n1" ) has viability at 28.5 h, 10 µM equal to 92.4%

Per the records, this compound ( "CCCc1ccc(N(C)C(=O)c2ccc(OC(F)(F)F)cc2)cc1" ) has viability at 28.5 h, 10 µM equal to 91.4%

Per the records, this compound ( CC(C)NC(=O)c1sc2ccccc2c1C1CCN(S(=O)(=O)c2ccccc2)C1 (stereo not shown) ) has viability at 28.5 h, 10 µM equal to 83.1%

Per the records, this compound ( "COc1cccc(C(=O)Nc2ccccc2C(=O)Nc2cccc(C(=O)O)c2C)c1" ) has viability at 28.5 h, 10 µM equal to 88.1%

Per the records, this compound ( "Cc1cc(C)c(S(=O)(=O)NCCSCCC(=O)O)c(C)c1" ) has viability at 28.5 h, 10 µM equal to 95.7%

Per the records, this compound ( "Cn1c(CNC(=O)c2ccc(Cl)cc2)nnc1SCC(=O)c1ccc(Br)cc1" ) has viability at 28.5 h, 10 µM equal to 88.4%
